Ref: patent US20160193281A1

biological target: T1, MAP kinase p38α (non-phosphorylated, OH-p38α) as used in the Biacore inhibition in solution assay (human, UniProt Q16539 2-360, limits assumed); test: Biacore 3000 inhibition in solution assay; p38α pre-incubated with peptide, free p38α captured on immobilised ureidoquinazoline compound; Biacore inhibition in solution assay
T1 construct: The text says the chip was calibrated with nonphosphorylated or phosphorylated p38α; also called MAPK14; SAPK2a
T1 sequence (Q16539 2-360 limits assumed): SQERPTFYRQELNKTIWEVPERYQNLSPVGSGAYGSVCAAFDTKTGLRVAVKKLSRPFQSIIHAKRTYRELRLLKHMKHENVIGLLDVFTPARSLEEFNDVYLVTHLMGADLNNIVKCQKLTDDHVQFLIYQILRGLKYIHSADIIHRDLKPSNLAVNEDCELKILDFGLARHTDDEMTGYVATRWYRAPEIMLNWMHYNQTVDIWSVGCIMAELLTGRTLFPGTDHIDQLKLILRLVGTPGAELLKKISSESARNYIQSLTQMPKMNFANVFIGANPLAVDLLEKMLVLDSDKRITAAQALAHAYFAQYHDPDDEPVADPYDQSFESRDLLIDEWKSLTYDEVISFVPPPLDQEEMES
Where no end group is shown, it is not given here.
reportedProperty: Kd (nM)
Numbers only; they are read as nM.

Look up Kd for this binder: Ac-HKSRALLIFQKIMWLRRQ (Synthetic peptide, all L-amino acids, peptide bonds throughout, N-acetylated; also called BB2702 peptide) [BB2702 (N-acetylated peptide HKSRALLIFQKIMWLRRQ)]
25
